Test target: human B1R (Homo sapiens)
Assay name: FLIPR calcium ion flux assay, inhibitory activity against human B1R
Condition set: HEK293 cells stably expressing human B1R; agonist [Lys-des-Arg9]-Bradykinin 4.6 nM (EC80); FLIPR method
Readout kind: IC50 (nM)

// below: answered molecules
C[C@H]1CC[C@@H](NC(=O)Nc2ccc(OC3CCOCC3)c(-c3nn[nH]n3)c2)CC1 ... 12000
C[C@H]1CC[C@@H](NC(=O)Nc2ccc(C3CCOCC3)c(-c3nn[nH]n3)c2)CC1 ... 13300
COc1cncc(-c2c(F)cc(NC(=O)N3CCC(C(C)(C)C)CC3)cc2-c2nn[nH]n2)c1 ... 54.8

A. COc1ccc(-c2ccc(NC(=O)N3CCC(C)(C)CC3)cc2-c2nn[nH]n2)cc1OC
B. CC(C)(C)C1CCN(C(=O)Nc2cnc(C(=O)OC3CCCCC3)c(-c3nn[nH]n3)c2)CC1
C. COc1ccc(-c2c(F)cc(NC(=O)N3CCC(C)CC3)cc2-c2nn[nH]n2)cc1OC
D. CCOc1ccc(-c2ncc(NC(=O)N3CCC(C(C)(C)C)CC3)cc2-c2nn[nH]n2)cn1
E. C[C@H]1CC[C@H](NC(=O)Nc2ccc(C3CCOCC3)c(-c3nn[nH]n3)c2)CC1
# input Place the items in sequence of falling IC50. A complete answer lists every label in the requested sequence.
# output E, A, B, D, C
(E: 7490 nM, A: 148 nM, B: 83.7 nM, D: 57.8 nM, C: 32.3 nM)

* * *

Assay name: Pharmacokinetics in vivo in rats
Parameters: species or system SD rats
Condition set: SD, rat, plasma; 3 mg/kg intravenous injection in rats
Readout kind: clearance (mL/min/kg)

1. CCOc1ccc(-c2ccc(NC(=O)N[C@H]3CC[C@H](C)CC3)cc2-c2nn[nH]n2)cn1
2. CCOc1ccc(-c2c(F)cc(NC(=O)N3CCC(C(C)(C)C)CC3)cc2-c2nn[nH]n2)cn1
# input Hi, I'm comparing two records. Which one has the lower clearance, 1 or 2 ? // respond with label for picked entry
# output 1

* * *

Test target: human B1R (Homo sapiens)
Construct: host or cells: HEK293
Sequence (P46663 1-353): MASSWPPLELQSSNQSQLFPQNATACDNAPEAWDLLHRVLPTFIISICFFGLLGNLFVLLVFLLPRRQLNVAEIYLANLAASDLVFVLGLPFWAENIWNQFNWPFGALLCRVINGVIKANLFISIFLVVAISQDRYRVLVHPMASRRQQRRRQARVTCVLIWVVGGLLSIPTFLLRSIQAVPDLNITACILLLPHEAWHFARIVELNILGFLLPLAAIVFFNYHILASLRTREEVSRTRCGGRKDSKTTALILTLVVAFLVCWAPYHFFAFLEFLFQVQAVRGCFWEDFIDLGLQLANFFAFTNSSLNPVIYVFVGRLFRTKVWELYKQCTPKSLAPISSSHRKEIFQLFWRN
Assay name: FLIPR calcium ion flux assay, inhibitory activity against human B1R
Format: cell-based
Condition set: HEK293 cells stably expressing human B1R; agonist [Lys-des-Arg9]-Bradykinin 4.6 nM (EC80); FLIPR method
Readout kind: IC50 (µM)

COc1ccc(Oc2ccc(NC(=O)N[C@H]3CC[C@@H](C)CC3)cc2-c2nn[nH]n2)cc1OC [Compound 63] ... 7.71

1. COc1ccc(-c2ccc(NC(=O)N3CCC(C(C)(C)C)CC3)cc2-c2nn[nH]n2)cc1Cl [Compound 14]
2. C[C@H]1CC[C@H](NC(=O)Nc2ccc(C3=CCOCC3)c(-c3nn[nH]n3)c2)CC1 [Compound 66]
# input Hi, I'm comparing two records. Which one has the lower IC50, 1 or 2 ? // respond with label for picked entry
# output 1

* * *

Test target: human B1R (Homo sapiens, UniProt P46663)
Assay name: FLIPR calcium ion flux assay, inhibitory activity against human B1R
Condition set: HEK293 cells stably expressing human B1R; agonist [Lys-des-Arg9]-Bradykinin 4.6 nM (EC80); FLIPR method
pIC50: −log10 of the molar value.
Readout kind: pIC50

// below: answered compounds
COc1ccc(-c2ccc(NC(=O)NC3CCC(C(C)(C)C)CC3)cc2-c2nn[nH]n2)cc1OC (centres unmarked) [Compound 59] ... 7.45
COc1ccc(-c2ccc(NC(=O)Nc3ccc(C(F)(F)F)cc3)cc2-c2nn[nH]n2)cc1OC [Compound 60] ... 6.61
CC1CCN(C(=O)Nc2cc(F)c(C(=O)OC3CCCCC3)c(-c3nn[nH]n3)c2)CC1 [Compound 23] ... 7.35
COc1ccc(-c2ncc(NC(=O)N3CCC(C(C)(C)C)CC3)cc2-c2nn[nH]n2)cc1OC [Compound 35] ... 7.03
C[C@H]1CC[C@H](NC(=O)Nc2ccc(-c3ccc4c(c3)OCO4)c(-c3nn[nH]n3)c2)CC1 [Compound 69] ... 5.31

P. Cc1ccc(NC(=O)c2c(F)cc(NC(=O)N3CCC(C(C)(C)C)CC3)cc2-c2nn[nH]n2)nc1 [Compound 54]
Q. Cc1ccc(-c2ccc(NC(=O)N3CCC(C(C)(C)C)CC3)cc2-c2nn[nH]n2)cn1 [Compound 51]
R. CC(C)(C)c1cn(-c2ccc(NC(=O)N3CCC(C(C)(C)C)CC3)cc2-c2nn[nH]n2)cn1 [Compound 58]
S. CCOC(=O)c1ccc(NC(=O)N2CCC(C)CC2)cc1-c1nn[nH]n1 [Compound 24]
# input Please list these in order of increasing pIC50. Thank you! A complete answer lists every label in the requested sequence.
# output P, S, Q, R
(P: 7.17, S: 7.45, Q: 7.75, R: 8.07)

a. Cn1ncc2cc(-c3ncc(NC(=O)N4CCC(C(C)(C)C)CC4)cc3-c3nn[nH]n3)ccc21 [Compound 36]
b. CCOc1ccc(-c2ccc(NC(=O)N3CCC(C(C)(C)C)CC3)cc2-c2nn[nH]n2)cn1 [Compound 6]
# input Hi, I'm comparing two records. Which one has the lower pIC50, a or b ? // respond with label for picked entry
# output a

P. CC(C)(C)C1CCN(C(=O)Nc2ccc(C(=O)OC3CCCCC3)c(-c3nn[nH]n3)c2)CC1 [Compound 15]
Q. Cc1ccc(-c2c(F)cc(NC(=O)N3CCC(C(C)(C)C)CC3)cc2-c2nn[nH]n2)cn1 [Compound 55]
# input Hi, I'm comparing two records. Which one has the lower pIC50, P or Q ? // respond with label for picked entry
# output P
(P: 7.40, Q: 8.05)

* * *

Assay name: Drug concentration in rat retinas after intraocular injection (HPLC)
Assay type: in vivo, Wistar rats
Condition set: male, Wistar, rat, retina, other: intraocular injection, 5 μL of 0.5% solution per eye; Day 7 after intraocular injection of 0.5% (5 μL per eye); read-out: retinal drug concentration
Readout kind: concentration at 7 d (nM)
// return numeric value only (unit: nM, not printed)

# input Fill in: concentration at 7 d of COc1ccc(-c2ccc(NC(=O)N3CCC(C(F)(F)F)CC3)cc2-c2nn[nH]n2)cc1OC is ___
# output 1540

* * *

Test target: human B1R (Homo sapiens, UniProt P46663)
Sequence (P46663 1-353): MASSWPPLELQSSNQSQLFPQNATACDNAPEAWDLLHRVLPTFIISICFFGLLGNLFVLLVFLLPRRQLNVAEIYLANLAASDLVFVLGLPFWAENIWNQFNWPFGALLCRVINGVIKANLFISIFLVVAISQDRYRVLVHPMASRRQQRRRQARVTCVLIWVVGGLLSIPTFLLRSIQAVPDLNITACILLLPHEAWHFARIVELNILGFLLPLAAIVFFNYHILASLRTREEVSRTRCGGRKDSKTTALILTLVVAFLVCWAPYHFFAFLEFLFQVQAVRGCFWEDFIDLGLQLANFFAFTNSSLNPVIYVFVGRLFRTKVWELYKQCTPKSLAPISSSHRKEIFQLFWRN
Assay name: FLIPR calcium ion flux assay, inhibitory activity against human B1R
Condition set: HEK293 cells stably expressing human B1R; agonist [Lys-des-Arg9]-Bradykinin 4.6 nM (EC80); FLIPR method
pIC50: −log10 of the molar value.
Readout kind: pIC50

P. COc1ccc(Oc2ccc(NC(=O)N[C@H]3CC[C@H](C)CC3)cc2-c2nn[nH]n2)cc1OC
Q. COc1ccc(-c2ccc(NC(=O)N3CCC(C(C)(C)C)CC3)cc2-c2nn[nH]n2)cc1OC
# input Hi, I'm comparing two records. Which one has the lower pIC50, P or Q ? // respond with label for picked entry
# output P
(P: 5.00, Q: 7.40)

I. Cn1ncc2cc(-c3ccc(NC(=O)N4CCC(C(C)(C)C)CC4)cc3-c3nn[nH]n3)ccc21
II. COc1ccc(-c2ccc(NC(=O)N3CCC4(CCCO4)CC3)cc2-c2nn[nH]n2)cc1OC
# input Response body: label of entry with the larger pIC50; valid values I , II . // respond with label for picked entry
# output I
